# Target Under Test: Fes (UniProt P07332)
# Sequence (P07332 whole entry, looked up): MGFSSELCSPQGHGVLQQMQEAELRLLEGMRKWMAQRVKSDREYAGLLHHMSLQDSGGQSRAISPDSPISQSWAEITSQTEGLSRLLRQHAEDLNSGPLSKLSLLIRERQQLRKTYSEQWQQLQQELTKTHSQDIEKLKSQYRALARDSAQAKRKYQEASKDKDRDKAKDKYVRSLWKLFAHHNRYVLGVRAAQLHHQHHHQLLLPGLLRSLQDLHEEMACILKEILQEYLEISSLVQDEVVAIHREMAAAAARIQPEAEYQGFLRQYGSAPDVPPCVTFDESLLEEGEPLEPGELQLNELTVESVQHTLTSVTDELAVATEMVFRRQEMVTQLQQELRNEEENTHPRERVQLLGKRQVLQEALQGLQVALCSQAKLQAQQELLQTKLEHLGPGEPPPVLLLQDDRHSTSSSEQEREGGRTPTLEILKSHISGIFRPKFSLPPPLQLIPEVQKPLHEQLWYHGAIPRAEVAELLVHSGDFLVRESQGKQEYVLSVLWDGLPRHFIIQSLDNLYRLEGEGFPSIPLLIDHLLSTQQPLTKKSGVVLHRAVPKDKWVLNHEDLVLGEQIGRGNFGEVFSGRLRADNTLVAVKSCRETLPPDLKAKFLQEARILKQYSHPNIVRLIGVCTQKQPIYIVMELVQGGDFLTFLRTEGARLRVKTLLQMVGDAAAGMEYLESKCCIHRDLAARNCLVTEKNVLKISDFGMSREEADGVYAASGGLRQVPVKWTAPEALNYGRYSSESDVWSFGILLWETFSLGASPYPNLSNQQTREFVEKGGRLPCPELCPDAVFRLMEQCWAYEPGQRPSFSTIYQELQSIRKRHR
# Assay Details: phosphorylation enrichment, bacterial display (enrichment ratio); higher = better substrate or ligand; peptides without Tyr show the background;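 further: 11-residue human phosphosite peptides and single-mutation variants displayed on the E. coli surface, counted by deep sequencing, each peptide's frequency after selection divided by its frequency in the unselected input library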;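 further: frequency after pTyr selection over input frequency; kinase dosed for 20-30% of maximal phosphorylation in three min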
Tag: yes (1) if measured phosphorylation enrichment is not below 0.9, no (0) if it is.

// below: answered sequences
INSERT INTO measurements (sequence_input, class) VALUES
  ('APGDAYGDAGY [SYP_Y250]', 'no (0)'),
  ('KSIDEYLKLVG [RASAL2_Y381_E379D]', 'no (0)'),
  ('FTAVGYHKHIT [NOMO1_Y1137]', 'no (0)');

Problem: Decide: phosphorylation enrichment of DNAYQYMLTDR [MYH7_Y164] >= 0.9?
Result: no (0)

Problem: Item NQDRTYFESVR [SPEN_Y632_YF] with phosphorylation enrichment of 0.9 or above?
Result: yes (1)
